Every entry's value here was drawn from patent US20170037110A1.

- measurement.target: T1, HLA-A*02:01 (human)
- T1 construct: monomers captured on streptavidin plates; also called MHC class I
- protocol.text: UV peptide exchange ELISA
metric.name: peptide exchange yield

Worked set:
FLDPYCSASV
20 to 50%
YTLPIASSIRL
50 to 75%
LLQKFVPEI
20 to 50%
SLMEPPAVLLL
50 to 75%
ALMYESEKVGV
50 to 75%

Entry YLIDIKTIAI needs its peptide exchange yield filled in; supply it. 20 to 50%

Entry ILLDDTGLAYI needs its peptide exchange yield filled in; supply it. 50 to 75%

Entry ALLENPKMEL needs its peptide exchange yield filled in; supply it. 50 to 75%
